Biological target: T1, TRAF2, Q12933
T1 chain: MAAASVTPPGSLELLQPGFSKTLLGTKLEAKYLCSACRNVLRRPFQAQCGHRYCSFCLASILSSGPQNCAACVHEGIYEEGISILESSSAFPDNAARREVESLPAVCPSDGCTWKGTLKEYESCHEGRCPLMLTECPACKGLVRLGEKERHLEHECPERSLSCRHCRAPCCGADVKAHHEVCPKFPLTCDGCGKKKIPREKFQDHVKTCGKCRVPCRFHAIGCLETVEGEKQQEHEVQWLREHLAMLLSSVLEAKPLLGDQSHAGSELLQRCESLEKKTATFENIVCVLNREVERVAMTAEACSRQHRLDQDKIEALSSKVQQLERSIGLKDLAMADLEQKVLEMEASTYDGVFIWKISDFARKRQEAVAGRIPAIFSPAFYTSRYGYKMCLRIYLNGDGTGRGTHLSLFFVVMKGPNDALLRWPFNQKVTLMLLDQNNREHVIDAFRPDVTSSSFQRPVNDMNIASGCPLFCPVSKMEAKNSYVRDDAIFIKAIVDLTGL
Assay: median log2 fold change of GCK-ALFA target abundance (FLAG IP / Myc IP barcode read proportion) (log2 ratio); each designed protein is fused to an ALFA-tag nanobody in HEK293 cells to bring the named protein to FLAG-tagged glucokinase (GCK); Myc marks an untargeted standard; higher = target protein stabilised (more abundant)
Conditions: target protein: 3xFLAG-MCP-GCK-ALFA reporter; HEK293 landing pad (RPLP)
The full ranking holds about 1,800 sequences; the median of “median log2 fold change of GCK-ALFA target abundance (FLAG IP / Myc IP barcode read proportion)” is about 0.14, and the lowest 2% start at about -0.84. This is one part of a sample in which the lowest values are shown more often than they occur.
// 0 (no) strictly below 0.2 in median log2 fold change; 1 (yes) otherwise

Has traf2_out_11_155_685 (protein) EEKQKINNELVDKISEIADKAKAEARAIAAATAAAHPEAAAALAATLEASAGFGLSSFLGRLAATFRALGLADAAAQVEALRAQAQKEMNAAVKEAEEKL a recorded median log2 fold change greater than or equal to 0.2?
0 (no)

Has traf2_out_14_149_1232 (protein) SAEQEKLRAAAEINAEIAAALDEVLALLDAGKVEEAKALLRATIAELRARGAAHGITVSGLFVLEEILALLDTDVEAAKAAAAAARARARNAAEAFREMA a recorded median log2 fold change greater than or equal to 0.2?
1 (yes)

Has traf2_out_20_3_2071 (protein) KELEEEAERELERALELLKRAAELADEETAKRLEELIKRLKASRELSVDDRLVVVSEVRREVLELAEEAKAAGKEELAKELEEAAEALNRAAQLLYDILQ a recorded median log2 fold change greater than or equal to 0.2?
0 (no)

Has traf2_out_6_3_2516 (protein) MEESIRKDAETVLENMGITTAEQLKRLVKAEVNAVKKLVSRKDVDEADLAGAESVLNLTRAMVEVAYEKLPDLTEEQKKEMLALIKEAEELVKKKRKELE a recorded median log2 fold change greater than or equal to 0.2?
0 (no)

Has traf2_out_11_155_748 (protein) EERRKLLQEMNDKITELFDKAREEALKIAEEAAKKHPEHAEEIKKKIEETKGFSYRSFILSMIELFEELGLEEEAKKLKELLEKTQKEANKIVQETEKKL a recorded median log2 fold change greater than or equal to 0.2?
1 (yes)

Has traf2_out_13_95_1152 (protein) SKELAEKINQIADDMLDQVEAKLQALLEKMKAAGKGVEEVQKALDLARYRSVNEAIALLEELSKKYPEFKELFDATIKEIKAIIREAGRKVAELIKEEEA a recorded median log2 fold change greater than or equal to 0.2?
0 (no)

Has traf2_out_11_169_812 (protein) EEKEKNRKINDFALELNDEAKKELLKHAKALAKKAGLDVAEVEAIFEKHKNSSLSAVAAALIAYFKSKGKEEEAAAVLAKYEELKEEINKKVTEKIKELE a recorded median log2 fold change greater than or equal to 0.2?
1 (yes)

Has traf2_out_13_95_1160 (protein) SKELAKKIMEIADEMLDESEKILEELLKIAKEKGKLEKEVQEALDLARYRSINEAIHKLEELAKKYPEFKEEFEKAIKKLKELKREAGKKVAKLIKEEEE a recorded median log2 fold change greater than or equal to 0.2?
0 (no)

Has traf2_out_6_3_2520 (protein) MEESIRRDARTVLENMGITTAEQLKRLVEANVNAVKKLVSRPDVDEADLAGARSVLALTRAMVDVAAETLPDLTPEQVAEMKALIKEAEELVEKKRKELE a recorded median log2 fold change greater than or equal to 0.2?
0 (no)

Has traf2_out_18_167_1855 (protein) EEELKKKLEEATDELVKLSEVKRLARTALQLLETDPAAFPAAKAALIAALRAHGELAHLADRLEAAPPEEQPAVLEEIVEEAQRLANEKYKEIEELRKKL a recorded median log2 fold change greater than or equal to 0.2?
1 (yes)

Has traf2_out_20_3_2147 (protein) EELERELAEELERAKALLAEAAALADPETAARLEALRERLEASRALSPSDQLVVVSEVRREVRLLAQEARAAGDEELAALLEEAAAALNRAANLLMRIIE a recorded median log2 fold change greater than or equal to 0.2?
1 (yes)

Has traf2_out_3_89_2292 (protein) SEERERKIRLARERAERYARGFEKSARRVAKEMLKEGYSLETLRGVLEAARTALVEVFREELRELGLSEEDIRELVEELERRLREIVEKVLEEAEKKRKE a recorded median log2 fold change greater than or equal to 0.2?
0 (no)

Has traf2_out_6_156_2407 (protein) MVEEIFEEAMKEIKELIKKLSEASEEKKISYISKIAGTFYRALQRLREAGASVEELEEFIKRMMEKIKEWLDEEGLPEDIKNLILSSLKAVGDVALEEAK a recorded median log2 fold change greater than or equal to 0.2?
0 (no)

Has traf2_out_13_95_1034 (protein) SRELAEKIMEIADEAEEKILKLLEEKSKELADDPEMVKVLEEARRLALTRGVNEAIHLLREASERFPEYKEELDKLIEEIEKIREEAGKKVAELIKEEEE a recorded median log2 fold change greater than or equal to 0.2?
0 (no)

Has traf2_out_20_3_2262 (protein) DELRAKAEAALAEAEALLAELAPRLPAADAARLQELLDAAKAAFATDLRDALVYLSELRRLALALAEEARAAGDAALAAALEALADAVGRAANYVYKIIE a recorded median log2 fold change greater than or equal to 0.2?
1 (yes)

Has traf2_out_11_104_646 (protein) LTREQAREFNDFAMEANDKAKELLQEVADFLESRGHEEEAAKVRAELAHPGSGVSTFKNLLEELLPKLDEESRAVAEKAIKELEELQKKVSDKLNELEKK a recorded median log2 fold change greater than or equal to 0.2?
0 (no)

Cited source for all entries: the supplement of paper PMC12632987
